Hey, just so you know, these numbers are from paper PMC5898002.

Assay: cytotoxicity in MDCK cell by MTT assay
Details: dog, MDCK cells, CC50: concentration required to reduce MDCK cell viability by 50%, mean of n = 3
Measurement Type: CC50 at 48 h (µM)

>>> df
                                   molecule  measured_number
0  NC(=O)c1ncn([C@@H]2O[C@H](CO)[C@@H](O)[C@H]2O)n1 [Ribavirin, reference compound]             1520
1                Cc1c(O)cc(CCCCCC(C)C)oc1=O             1450
2                CCc1c(O)cc(CCCCC(C)C)oc1=O             1570
3                 CCCCCCCc1cc(O)c(C)c(=O)o1             2200
4  CCC(C)CCCCc1cc(O)c(C)c(=O)o1 (centres unmarked)             1620

====

Assay: in vitro
Details: dog, CC50: concentration required to reduce MDCK cell viability by 50%
Measurement Type: CC50 at 48 h

>>> print(df.to_string())
             smiles_notation     result
0  Cc1c(O)cc(CCCCC(C)C)oc1=O  > 1400 µM

====

System: MDCK cells
Settings: dog, 48 h
Measurement Type: CC50

In [3]: df
Out[3]:
             smiles_notation  measurement_type     result
0  Cc1c(O)cc(CCCCC(C)C)oc1=O              CC50  > 1500 µM
